Here the recorded TGI is given for each entry.
- System: MDA-N
- PROTOCOL_DETAILS: NCI tumour cell line growth inhibition, 48 h

>  <COMPOUND>
C/C=C(/COC(C)=O)C(=O)OC1C=C(C=O)C(C)(C)C=C1C (stereo not drawn)

>  <STUDY_SYSTEM>
MDA-N

>  <TGI>
> 100 µM

$$$$
>  <COMPOUND>
COc1ccc(NC(C)=O)cc1N1C(=O)/C(=C\c2cc(OC)c(OC)c(OC)c2)SC1c1ccccc1 (stereo not drawn)

>  <STUDY_SYSTEM>
MDA-N

>  <TGI>
72.3 µM

$$$$
>  <COMPOUND>
CSC1=N/C(=C\c2ccco2)C(=O)N1CN1CCOCC1

>  <STUDY_SYSTEM>
MDA-N

>  <TGI>
> 100 µM

$$$$
